Taken from ChEMBL document CHEMBL1681739.

biological target: UniProtKB P35968; experiment: Inhibition of KDR assessed as phosphorylation level of substrate at 10 uM by ELISA
Response field class: string, computed from recorded inhibition by ranges 1: < 20%; 2: ≥ 20% and < 40%; 3: ≥ 40%

Here's what some known entries look like.
O=C(Nc1ccc(Cl)cc1)c1c[nH]c2cccc(NCc3ccncc3)c12; 2
O=C(Nc1ccc2c(c1)CCC2)c1c[nH]c2cccc(NCc3ccncc3)c12; 2
O=C(Nc1cccc(Cl)c1)c1c[nH]c2cccc(SCc3ccncc3)c12; 2
CC(C)(C)c1ccc(NC(=O)c2c[nH]c3cccc(SCc4ccncc4)c23)cc1; 3
Cc1cccc(NC(=O)c2c[nH]c3cccc(NCc4ccncc4)c23)c1; 1

Q) Place this compound in its band: O=C(Nc1ccc2c(c1)CCC2)c1c[nH]c2cccc(SCc3ccncc3)c12
A) 3

###

target: UniProt:P35968
readoutKind: pIC50
Please note pIC50 is a logarithmic value: minus log10 of concentration in mol/L. Answer with that number alone.

Q) Please tell me: pIC50 of O=C(Nc1cccc(C(F)(F)F)c1)c1c[nH]c2cccc(SCc3ccncc3)c12 , system UniProt:P35968?
A) 6.51

###

A collection of compounds and their measured inhibition
target: Vascular endothelial growth factor receptor 2 (Homo sapiens, UniProt P35968); assay: Inhibition of KDR assessed as phosphorylation level of substrate at 10 uM by ELISA
Sequence (P35968 whole entry): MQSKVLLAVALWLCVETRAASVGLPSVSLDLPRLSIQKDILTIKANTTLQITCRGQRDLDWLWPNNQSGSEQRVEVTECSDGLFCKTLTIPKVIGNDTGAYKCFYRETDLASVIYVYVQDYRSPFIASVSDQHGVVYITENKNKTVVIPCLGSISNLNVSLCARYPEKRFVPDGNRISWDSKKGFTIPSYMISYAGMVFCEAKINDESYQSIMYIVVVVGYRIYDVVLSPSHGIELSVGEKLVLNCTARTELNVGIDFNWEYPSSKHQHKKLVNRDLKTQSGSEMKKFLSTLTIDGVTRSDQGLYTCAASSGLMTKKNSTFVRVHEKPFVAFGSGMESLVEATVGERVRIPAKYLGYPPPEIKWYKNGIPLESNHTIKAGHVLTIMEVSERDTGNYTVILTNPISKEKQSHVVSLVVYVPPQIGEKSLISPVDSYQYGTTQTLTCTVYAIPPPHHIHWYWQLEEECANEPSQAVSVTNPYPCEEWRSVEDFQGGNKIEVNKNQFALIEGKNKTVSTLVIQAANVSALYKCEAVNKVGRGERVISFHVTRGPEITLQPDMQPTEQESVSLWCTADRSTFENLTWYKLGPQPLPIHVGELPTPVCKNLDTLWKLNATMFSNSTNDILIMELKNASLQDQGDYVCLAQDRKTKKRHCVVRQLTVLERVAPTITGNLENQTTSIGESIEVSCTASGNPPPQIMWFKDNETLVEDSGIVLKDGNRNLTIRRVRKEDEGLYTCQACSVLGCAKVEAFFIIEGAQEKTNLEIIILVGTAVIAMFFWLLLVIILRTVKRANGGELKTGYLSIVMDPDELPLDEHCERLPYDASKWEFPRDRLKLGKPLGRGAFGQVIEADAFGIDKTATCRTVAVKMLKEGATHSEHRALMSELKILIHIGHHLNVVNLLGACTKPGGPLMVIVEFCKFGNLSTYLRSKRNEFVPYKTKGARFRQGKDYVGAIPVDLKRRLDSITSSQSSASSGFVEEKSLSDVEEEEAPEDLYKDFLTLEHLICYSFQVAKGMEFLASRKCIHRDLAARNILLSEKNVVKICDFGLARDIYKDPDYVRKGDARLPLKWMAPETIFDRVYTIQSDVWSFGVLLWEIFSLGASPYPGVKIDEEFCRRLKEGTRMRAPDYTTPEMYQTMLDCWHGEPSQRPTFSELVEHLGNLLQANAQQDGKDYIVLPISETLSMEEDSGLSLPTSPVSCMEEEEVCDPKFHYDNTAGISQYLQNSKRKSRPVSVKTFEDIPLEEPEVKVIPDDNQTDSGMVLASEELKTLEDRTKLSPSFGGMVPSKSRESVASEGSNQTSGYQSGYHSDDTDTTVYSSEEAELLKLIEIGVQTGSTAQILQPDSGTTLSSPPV
Give your result in % as a bare value.

O=C(Nc1cccc(C(F)(F)F)c1)c1c[nH]c2cccc(NCc3ccncc3)c12; 25
O=C(Nc1cccc(C(F)(F)F)c1)c1c[nH]c2cccc(OCc3ccncc3)c12; 4
O=C(Nc1cc2ccccc2cn1)c1c[nH]c2cccc(SCc3ccncc3)c12; 74
CC(C)(C)c1ccc(NC(=O)c2c[nH]c3cccc(NCc4ccncc4)c23)cc1; 25
CC(C)(C)c1ccc(NC(=O)c2c[nH]c3cccc(OCc4ccncc4)c23)cc1; 6
Cc1cccc(NC(=O)c2c[nH]c3cccc(SCc4ccncc4)c23)c1; 52
O=C(Nc1cc2ccccc2cn1)c1c[nH]c2cccc(NCc3ccncc3)c12; 55
O=C(Nc1cccc(Cl)c1)c1c[nH]c2cccc(NCc3ccncc3)c12; 18

Q) Which inhibition reading was recorded for the compound Cc1cc(C)cc(NC(=O)c2c[nH]c3cccc(SCc4ccncc4)c23)c1 ?
A) 35

###

target: Vascular endothelial growth factor receptor 2 (Homo sapiens, UniProt P35968); assay: Inhibition of KDR assessed as phosphorylation level of substrate at 10 uM by ELISA
Catalogue of inhibition values
Lab book: enter the figure in %, no units written.

Below, each entry is followed by its recorded inhibition result.
O=C(Nc1ccc(Cl)cc1)c1c[nH]c2cccc(OCc3ccncc3)c12; 9
O=C(Nc1ccc(OC(F)(F)F)cc1)c1c[nH]c2cccc(SCc3ccncc3)c12; 35
O=C(Nc1ccc2c(c1)CCC2)c1c[nH]c2cccc(OCc3ccncc3)c12; 19
Cc1cc(C)cc(NC(=O)c2c[nH]c3cccc(NCc4ccncc4)c23)c1; 19
O=C(Nc1ccc(OC(F)(F)F)cc1)c1c[nH]c2cccc(NCc3ccncc3)c12; 14

Q) Could you share which inhibition value was measured for O=C(Nc1ccc(Cl)cc1)c1c[nH]c2cccc(SCc3ccncc3)c12 ?
A) 34

Q) Could you share which inhibition value was measured for O=C(Nc1cccc(C(F)(F)F)c1)c1c[nH]c2cccc(SCc3ccncc3)c12 ?
A) 92
